Recorded IC50 by entry
Target: TDO (Homo sapiens, UniProt P48775)
Sequence (P48775 whole entry): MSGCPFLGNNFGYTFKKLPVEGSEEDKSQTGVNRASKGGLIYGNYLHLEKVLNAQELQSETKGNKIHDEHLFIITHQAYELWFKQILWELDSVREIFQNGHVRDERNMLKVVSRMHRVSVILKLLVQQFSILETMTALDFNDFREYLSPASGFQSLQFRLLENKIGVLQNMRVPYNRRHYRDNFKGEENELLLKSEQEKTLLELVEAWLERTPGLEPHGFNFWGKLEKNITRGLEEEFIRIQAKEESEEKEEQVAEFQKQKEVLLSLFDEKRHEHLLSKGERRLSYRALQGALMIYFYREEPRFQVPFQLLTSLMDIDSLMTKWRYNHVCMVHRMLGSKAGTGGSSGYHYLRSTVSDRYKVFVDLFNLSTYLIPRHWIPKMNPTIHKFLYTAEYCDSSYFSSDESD
Experiment: hTDO biochemical coupled assay
Settings: 330 μM L-tryptophan, 17 minutes, room temperature; read-out: hTDO biochemical assay pIC50 (converted)

## Input Item CC(=O)N(C)c1cc(N2CCN(S(C)(=O)=O)C(C)(C)C2)c2cn[nH]c2c1 : provide IC50
## Output 32.4 to 100 µM

## Input Item O=C1CCCN1C1CCN(c2cc(Cl)cc3[nH]ncc23)CC1 : provide IC50
## Output < 3.16 µM

## Input Item CC(=O)N1CCC2(CCN(c3cc(Cl)cc4[nH]ncc34)CC2)C1 : provide IC50
## Output < 3.16 µM

## Input Item O=C1CC2(CCN(c3cc(Cl)cc4[nH]ncc34)CC2)CN1 : provide IC50
## Output < 3.16 µM

## Input Item CC(=O)Nc1ccc(C2CCN(c3cc(Cl)cc4[nH]ncc34)CC2)cc1 : provide IC50
## Output < 3.16 µM

## Input Item Cc1nc2c(n1C)CN(c1cc(C(F)(F)F)cc3[nH]ncc13)CC2 : provide IC50
## Output 3.24 to 31.6 µM

## Input Item CN1CNC(=O)C12CCN(c1cc(Cl)cc3[nH]ncc13)CC2 : provide IC50
## Output 3.24 to 31.6 µM

---

Target: IDO (Homo sapiens, UniProt P14902)
Sequence (P14902 whole entry): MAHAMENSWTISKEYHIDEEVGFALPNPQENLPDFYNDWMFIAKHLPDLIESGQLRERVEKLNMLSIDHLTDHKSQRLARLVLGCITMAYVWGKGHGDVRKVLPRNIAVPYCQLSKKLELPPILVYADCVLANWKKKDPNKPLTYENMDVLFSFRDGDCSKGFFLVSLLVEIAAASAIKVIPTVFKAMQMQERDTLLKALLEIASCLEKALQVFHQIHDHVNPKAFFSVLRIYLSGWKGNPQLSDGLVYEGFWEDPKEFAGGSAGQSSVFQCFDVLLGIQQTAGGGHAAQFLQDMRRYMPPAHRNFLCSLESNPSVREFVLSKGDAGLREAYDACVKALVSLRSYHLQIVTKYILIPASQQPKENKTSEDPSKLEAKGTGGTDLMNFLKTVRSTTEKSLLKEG
Assay: SKOV3 kynurenine cell-based assay (IDO induced by IFN-γ)
Design: IDO expression was induced in the SKOV3 cells by the addition of 500 ng/ml IFN-γ; endogenous in cells; host or cells: SKOV3 (human ovarian adenocarcinoma), induced with IFN-γ
Settings: SKOV3 human ovarian adenocarcinoma cells, 500 ng/ml IFN-γ, 48 hours, 500 μM L-tryptophan; read-out: SKOV3 Kynurenine cell based assay pIC50 (converted)
result_type: IC50

The cases that follow already have their IC50 on record.
# compound, IC50
records = [
    ("CC1(C)CN(c2cc(C3CCCC3)cc3[nH]ncc23)CCN1S(C)(=O)=O [Compound 148]", "32.4 to 100 µM"),
    ("c1ccc(CCNc2cccc3[nH]ncc23)cc1 [Compound 50]", "32.4 to 100 µM"),
]

## Input State recorded IC50 with IDO (Homo sapiens, UniProt P14902), entry CC1(C)CN(c2cc(Cl)cc3c(N)noc23)CCN1S(C)(=O)=O [Compound 317] , no comment.
## Output 32.4 to 100 µM

## Input State recorded IC50 with IDO (Homo sapiens, UniProt P14902), entry CC(=O)N1CCC2(CCN(c3cc(Cl)cc4[nH]ncc34)CC2)C1 [Compound 350] , no comment.
## Output 3.24 to 31.6 µM

## Input State recorded IC50 with IDO (Homo sapiens, UniProt P14902), entry CC(C)S(=O)(=O)N1CCN(c2cc(Cl)cc3[nH]ncc23)CC1 [Compound 61] , no comment.
## Output 3.24 to 31.6 µM

## Input State recorded IC50 with IDO (Homo sapiens, UniProt P14902), entry O=C1N[C@H]2CC[C@@H]1CN(c1cc(Br)cc3[nH]ncc13)C2 [Compound 438] , no comment.
## Output > 100 µM

## Input State recorded IC50 with IDO (Homo sapiens, UniProt P14902), entry O=c1[nH]c2ccccc2n1C1CCN(c2cc(Cl)cc3[nH]ncc23)CC1 [Compound 354] , no comment.
## Output 3.24 to 31.6 µM

## Input State recorded IC50 with IDO (Homo sapiens, UniProt P14902), entry CS(=O)(=O)N1CCN(c2cc(-c3ccccc3)cc3[nH]ncc23)CC1 [Compound 33] , no comment.
## Output 32.4 to 100 µM

## Input State recorded IC50 with IDO (Homo sapiens, UniProt P14902), entry O=S(=O)(C1CC1)N1CCN(c2cccc3[nH]ncc23)CC1 [Compound 19] , no comment.
## Output 32.4 to 100 µM

## Input State recorded IC50 with IDO (Homo sapiens, UniProt P14902), entry CC1(C)CN(c2cc(Cl)cc3[nH]ncc23)CCC12NC(=O)NC2=O (stereo not shown) [Compound 424] , no comment.
## Output < 3.16 µM

---

Molecular target: IDO (Homo sapiens)
Assay: SKOV3 kynurenine cell-based assay (IDO induced by IFN-γ)
Parameters: IDO expression was induced in the SKOV3 cells by the addition of 500 ng/ml IFN-γ; endogenous in cells; host or cells: SKOV3 (human ovarian adenocarcinoma), induced with IFN-γ
Details: SKOV3 human ovarian adenocarcinoma cells, 500 ng/ml IFN-γ, 48 hours, 500 μM L-tryptophan; read-out: SKOV3 Kynurenine cell based assay pIC50 (converted)
result_type: IC50

The cases that follow already have their IC50 on record.
# compound, IC50
rows = [
    ("O=C1NC2(CCN(c3cc(Cl)cc4[nH]ncc34)CC2)C(=O)N1CC1CC1", "< 3.16 µM"),
    ("CNC(=O)c1ccc(-c2cc(Cl)cc3[nH]ncc23)cc1", "3.24 to 31.6 µM"),
    ("CN1C(=O)NC(=O)C12CCN(c1cc(Cl)cc3[nH]ncc13)CC2", "3.24 to 31.6 µM"),
]

## Input Item Clc1cc(N2CCN(c3nccs3)CC2)c2cn[nH]c2c1 : provide IC50
## Output 3.24 to 31.6 µM

## Input Item CN(C)C(=O)c1ccc(-c2cc(Cl)cc3[nH]ncc23)cc1 : provide IC50
## Output 3.24 to 31.6 µM

---

Target: TDO (Homo sapiens, UniProt P48775)
Test: hTDO biochemical coupled assay
Details: 330 μM L-tryptophan, 17 minutes, room temperature; read-out: hTDO biochemical assay pIC50 (converted)
result_type: IC50

The cases that follow already have their IC50 on record.
# compound, IC50
rows = [
    ("COC(=O)CN1CCN(c2cc(Cl)cc3[nH]ncc23)CC1(C)C", "< 3.16 µM"),
    ("CC(=O)NC1CCN(c2cc(Cl)cc3[nH]ncc23)C1 (stereo not shown)", "< 3.16 µM"),
]

## Input Item CS(=O)(=O)N1CCN(c2cc(Cl)cc3[nH]ncc23)CC1 : provide IC50
## Output < 3.16 µM

## Input Item Cn1cc2c(n1)CN(c1cc(Cl)cc3[nH]ncc13)CC2 : provide IC50
## Output < 3.16 µM

---

Target: TDO (Homo sapiens, UniProt P48775)
Assay: hTDO biochemical coupled assay
Conditions: 330 μM L-tryptophan, 17 minutes, room temperature; read-out: hTDO biochemical assay pIC50 (converted)
Recorded IC50 by entry

The cases that follow already have their IC50 on record.
# compound, IC50
data = [
    ("CN(C)C(=O)C1CCCN(c2cc(Cl)cc3[nH]ncc23)C1 (stereo not drawn)", "32.4 to 100 µM"),
    ("CNC(=O)C1CCN(c2cc(Cl)cc3[nH]ncc23)CC1", "< 3.16 µM"),
    ("Cc1nc2c(o1)CN(c1cc(C(F)(F)F)cc3[nH]ncc13)CC2(C)C", "< 3.16 µM"),
]

## Input State recorded IC50 with TDO (Homo sapiens, UniProt P48775), entry OC(c1cc(Cl)cc2[nH]ncc12)C1CCOCC1 (stereo not drawn) , no comment.
## Output < 3.16 µM

## Input State recorded IC50 with TDO (Homo sapiens, UniProt P48775), entry Cn1ncc2c1CCN(c1cc(Cl)cc3[nH]ncc13)C2 , no comment.
## Output < 3.16 µM

---

Recorded IC50 by entry
Target: IDO (Homo sapiens, UniProt P14902)
Assay: SKOV3 kynurenine cell-based assay (IDO induced by IFN-γ)
Set-up: IDO expression was induced in the SKOV3 cells by the addition of 500 ng/ml IFN-γ; endogenous in cells; host or cells: SKOV3 (human ovarian adenocarcinoma), induced with IFN-γ
Conditions: SKOV3 human ovarian adenocarcinoma cells, 500 ng/ml IFN-γ, 48 hours, 500 μM L-tryptophan; read-out: SKOV3 Kynurenine cell based assay pIC50 (converted)

# compound, IC50
measured = [
    ("CN(C)C(=O)C1CCN(c2cc(Cl)cc3[nH]ncc23)CC1", "3.24 to 31.6 µM"),
    ("CN(CC1CCN(c2cc(Cl)cc3[nH]ncc23)CC1)S(C)(=O)=O", "3.24 to 31.6 µM"),
]

## Input Item CC1(C)CN(c2cccc3[nH]ncc23)CCN1S(C)(=O)=O : provide IC50
## Output 3.24 to 31.6 µM

## Input Item CC(=O)N1CCN(c2cc(C3CC3)cc3[nH]ncc23)CC1(C)C : provide IC50
## Output 3.24 to 31.6 µM

## Input Item CN(C)C(=O)C1CCN(c2cc(Cl)cc3[nH]ncc23)C1 (stereo not drawn) : provide IC50
## Output 3.24 to 31.6 µM
